- Test Description: MTT cytotoxicity assay in Neuro-2a cells
- Type: cell-based, Murine
- Assay Context: mouse, Neuro-2a cells (confluent nongrowing monolayers), 24 h incubation at 37°C
Overview of recorded CC50 at 24 h for various compounds
Answer with the value and then the unit.

CC[C@@H](C(C)C)[C@H](O)[C@@H](O)[C@@H](C)[C@H]1CC[C@H]2[C@@H]3CCC4=CC(=O)CC[C@]4(C)[C@H]3CC[C@]12C [Compound 1]	80.4 µM

-- ask Give the reported CC50 at 24 h for this compound. CC[C@@H](C(C)C)[C@H](O)[C@@H](O)[C@@H](C)[C@H]1CC[C@H]2[C@@H]3CC(=O)[C@@]4(O)C[C@@H](Br)CC[C@]4(C)[C@H]3CC[C@]12C [Compound 2]
-- reply 65.2 µM

---

- Test Description: MTT cytotoxicity assay in PC-12 cells
- Type: cell-based
- Assay Context: rat, PC-12 cells (confluent nongrowing monolayers), 24 h incubation at 37°C
Readout: CC50 at 24 h

CC[C@@H](C(C)C)[C@H](O)[C@@H](O)[C@@H](C)[C@H]1CC[C@H]2[C@@H]3CC(=O)[C@@]4(O)C[C@@H](Br)CC[C@]4(C)[C@H]3CC[C@]12C	> 129 µM

-- ask Give the reported CC50 at 24 h for this compound. CC[C@@H](C(C)C)[C@H](O)[C@@H](O)[C@@H](C)[C@H]1CC[C@H]2[C@@H]3CCC4=CC(=O)CC[C@]4(C)[C@H]3CC[C@]12C
-- reply > 144 µM

---

- Test Description: MTT cytotoxicity assay in SH-SY5Y cells
- Format: cell-based
- Assay Context: human, SH-SY5Y cells (confluent nongrowing monolayers), 24 h incubation at 37°C
Readout: CC50 at 24 h (µM)
Quick reminder: number only, in µM, skip the unit.

CC[C@@H](C(C)C)[C@H](O)[C@@H](O)[C@@H](C)[C@H]1CC[C@H]2[C@@H]3CC(=O)[C@@]4(O)C[C@@H](Br)CC[C@]4(C)[C@H]3CC[C@]12C	70

-- ask Give the reported CC50 at 24 h for this compound. CC[C@@H](C(C)C)[C@H](O)[C@@H](O)[C@@H](C)[C@H]1CC[C@H]2[C@@H]3CCC4=CC(=O)CC[C@]4(C)[C@H]3CC[C@]12C
-- reply 77.2
